# Assay comment: Cellular toxicity in Huh7-CMV-Luc replicon assay
# Assay type: cell-based
# Experimental conditions: human, Huh7-CMV-Luc cells, three days incubation, Luc activity; read-out: CC50 (μM) (Huh-7)
Measurement name: CC50 at 3 days

# annotated cases, reported CC50 at 3 days shown
CCOC(=O)[C@H](Cc1ccccc1)NP(=O)(OC[C@H]1O[C@@H](n2ccc(=O)[nH]c2=O)C2(CC2)[C@@H]1O)Oc1ccccc1 (stereo partly drawn)    > 98 µM
CC(C)OC(=O)C(C)(C)NP(=O)(OC[C@H]1O[C@@H](n2ccc(=O)[nH]c2=O)C2(CC2)[C@@H]1O)Oc1ccccc1 (stereo partly drawn)    > 98 µM

For each of the compounds below, note its CC50 at 3 days.
1. Cc1ccc(C(C)C)cc1OP(=O)(N[C@@H](C)C(=O)OCc1ccccc1)OC[C@H]1O[C@@H](n2ccc(=O)[nH]c2=O)C2(CC2)[C@@H]1O (stereo partly drawn)
2. Cc1ccc(C(C)C)c(OP(=O)(N[C@@H](C)C(=O)OCc2ccccc2)OC[C@H]2O[C@@H](n3ccc(=O)[nH]c3=O)C3(CC3)[C@@H]2O)c1 (stereo partly drawn)

**Result**
> 32 µM
> 32 µM

For each of the items listed, what is its CC50 at 3 days?
1. C=CCCCCOC(=O)[C@H](C)NP(=O)(OC[C@H]1O[C@@H](n2ccc(=O)[nH]c2=O)C2(CC2)[C@@H]1O)Oc1ccc(CC=C)cc1OC (stereo partly drawn)
2. C[C@H](NP(=O)(OC[C@H]1O[C@@H](n2ccc(=O)[nH]c2=O)C2(CC2)[C@@H]1O)Oc1ccc(Cl)cc1)C(=O)OCc1ccccc1 (stereo partly drawn) [Compound 7]

**Result**
1. > 98 µM
2. > 90 µM
